B1: Osa-1-4 twister ribozyme (parent)
chain: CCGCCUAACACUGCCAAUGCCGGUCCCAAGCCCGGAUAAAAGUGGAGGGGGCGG

Variants of: B1
Assay: self-cleavage, relative activity (ratio to wild type); higher = more cleavage; co-transcriptional
# self-cleavage >= 0.09 gives Criterion met, anything below gives Criterion not met

Completed entries (count: 4):
INSERT INTO assay_data (sequence_change, classification) VALUES
  ('A17C G53U', 'Criterion met'),
  ('A40C G22U', 'Criterion not met'),
  ('A8G U37A', 'Criterion met'),
  ('C27U U37G', 'Criterion met');

Input line: Kindly determine if self-cleavage recorded for A39G C25A is above or exactly 0.09.
Output line: Criterion not met

Input line: Kindly determine if self-cleavage recorded for A8U U18G is above or exactly 0.09.
Output line: Criterion met

Input line: Kindly determine if self-cleavage recorded for A8G G48C is above or exactly 0.09.
Output line: Criterion not met

Input line: Kindly determine if self-cleavage recorded for A40C C26A is above or exactly 0.09.
Output line: Criterion not met

Input line: Kindly determine if self-cleavage recorded for A28C G19A is above or exactly 0.09.
Output line: Criterion met

Input line: Kindly determine if self-cleavage recorded for G13U G45A is above or exactly 0.09.
Output line: Criterion not met

Input line: Kindly determine if self-cleavage recorded for A8C G42C is above or exactly 0.09.
Output line: Criterion not met

Input line: Kindly determine if self-cleavage recorded for A8U G45A is above or exactly 0.09.
Output line: Criterion not met

Input line: Kindly determine if self-cleavage recorded for A8G G42C is above or exactly 0.09.
Output line: Criterion met

Input line: Kindly determine if self-cleavage recorded for A29G C20A is above or exactly 0.09.
Output line: Criterion met

Input line: Kindly determine if self-cleavage recorded for C21A G22C is above or exactly 0.09.
Output line: Criterion not met

Input line: Kindly determine if self-cleavage recorded for A38C C20A is above or exactly 0.09.
Output line: Criterion met
